Values were extracted from ChEMBL document CHEMBL5058577.

- Tested on: Fibroblast
- assay.overview: Multiplex assay against human fibroblast
- Assay type: toxicity, cell-based
- details: 12 h, 10 µM, compound concentration 10 uM, replicate 2

compound	assay.target	Total Cell Count
Cc1ccc(OCC(O)C(C)NC(C)C)c2c1CCC2.Cl (stereo not drawn)	Fibroblast	168
N[C@](CC1c2ccccc2Oc2ccccc21)(C(=O)O)[C@H]1C[C@@H]1C(=O)O	Fibroblast	119
Cc1cc(O)c(-c2ccc([C@@H](C)CN(C)C)cc2)c2c1[nH]c(=O)c1sccc12	Fibroblast	137
CCn1c(-c2nc3cc(C(=O)N4CCCC(N)C4)ccc3n2C)cc2ccccc21.Cl (stereo not drawn)	Fibroblast	186
CCCCCCNC(=O)Nc1ccc(S(=O)(=O)Nc2ccc(CCNC[C@H](O)COc3ccc(O)cc3)cc2)cc1 [L-755507]	Fibroblast	172
CCC(=O)OCC(=O)[C@@]1(OC(=O)CC)[C@@H](C)C[C@H]2[C@@H]3CCC4=CC(=O)C=C[C@]4(C)[C@@]3(Cl)[C@@H](O)C[C@@]21C [BECLOMETHASONE DIPROPIONATE]	Fibroblast	96
COc1cc2nc(N3CCN(C(=O)c4ccco4)CC3)nc(N)c2cc1OC.Cl [PRAZOSIN HYDROCHLORIDE]	Fibroblast	155
O=c1nc2[nH]c3ccccc3nc-2c(=O)[nH]1 [ALLOXAZINE]	Fibroblast	86
